ASSAY_NOTES: In Vivo Determination of Kp,uu,brain in Mice
Design: species or system mouse
CONDITION_SET: male, C57Bl/6, mouse, brain, po, 30 mg/kg, mouse, 30 mg/kg oral, 2 h; using fu,brain 0.0181; read-out: Unbound brain conc. (Cu,brain) ± SD
ENDPOINT: concentration at 2 h (nM)
Only the number, expressed in nM, is required.

Find the recorded concentration at 2 h belonging to Nc1nc(Oc2c(F)cc(F)cc2F)cc(C(F)(F)F)n1 [Example 2] and report it.
248

====

ASSAY_NOTES: Plasma and brain homogenate protein binding by equilibrium dialysis
Format: in vitro ADME, mouse
CONDITION_SET: mouse brain homogenate, read-out: fraction unbound in brain (fu,brain)
Description: Determination of plasma and brain protein binding: Mouse plasma and brain homogenate protein binding is determined in vitro using equilibrium dialysis, as described elsewhere [Zamek-Gliszczynski et al., J Pharm Sci, 101:1932-1940, 2012]. The results are reported as fraction unbound in plasma (fu,plasma) and brain (fu,brain) which are then utilized to calculate Kp,uu,brain as described below. Mouse fu,plasma and fu,brain of Example 2 are determined to be 0.0421 and 0.0181, respectively.
ENDPOINT: fraction unbound
Give only the figure.

Find the recorded fraction unbound belonging to Nc1nc(Oc2c(F)cc(F)cc2F)cc(C(F)(F)F)n1 [Example 2] and report it.
0.0181

====

ASSAY_NOTES: In Vivo Determination of Kp,uu,brain in Mice
Parameters: species or system mouse
CONDITION_SET: male, C57Bl/6, mouse, plasma, po, 30 mg/kg, mouse, 30 mg/kg oral, 2 h; using fu,plasma 0.0421; read-out: Unbound plasma conc. (Cu,plasma) ± SD
ENDPOINT: concentration at 2 h (nM)
Only the number, expressed in nM, is required.

Find the recorded concentration at 2 h belonging to "Nc1nc(Oc2c(F)cc(F)cc2F)cc(C(F)(F)F)n1" and report it.
409

====

ASSAY_NOTES: In Vivo Determination of Kp,uu,brain in Mice
Parameters: species or system mouse
CONDITION_SET: male, C57Bl/6, mouse, brain, po, 30 mg/kg, mouse, 30 mg/kg oral, 2 h; read-out: Total brain conc. (Ctotal,brain) ± SD
ENDPOINT: concentration at 2 h

Find the recorded concentration at 2 h belonging to Nc1nc(Oc2c(F)cc(F)cc2F)cc(C(F)(F)F)n1 [Example 2] and report it.
13.7 µM

====

ASSAY_NOTES: In Vivo Determination of Kp,uu,brain in Mice
Parameters: species or system mouse
CONDITION_SET: male, C57Bl/6, mouse, plasma, po, 10 mg/kg, mouse, 10 mg/kg oral, 2 h; read-out: Total plasma conc. (Ctotal,plasma) ± SD
Method: In Vivo Determination of Kp,uu,brain in Mice Unbound brain-to-plasma partition coefficient (Kp,uu,brain) is one of the key pharmacokinetic parameter for evaluating a compound's ability to cross the blood-brain barrier (BBB). It is typically measured in pre-clinical species using the following methodology. […] Pharmacokinetic sampling: Plasma and brain samples obtained are analyzed for Example 2 using an LC-MS/MS method (Q2 Solutions, Indianapolis, IN, USA). […]
ENDPOINT: concentration at 2 h (nM)
Only the number, expressed in nM, is required.

Find the recorded concentration at 2 h belonging to "Nc1nc(Oc2c(F)cc(F)cc2F)cc(C(F)(F)F)n1" and report it.
2770

Where do the numbers come from? From patent US11773067B2.
